Target: Estrogen receptor (Homo sapiens, UniProt P03372)
Sequence (P03372 whole entry): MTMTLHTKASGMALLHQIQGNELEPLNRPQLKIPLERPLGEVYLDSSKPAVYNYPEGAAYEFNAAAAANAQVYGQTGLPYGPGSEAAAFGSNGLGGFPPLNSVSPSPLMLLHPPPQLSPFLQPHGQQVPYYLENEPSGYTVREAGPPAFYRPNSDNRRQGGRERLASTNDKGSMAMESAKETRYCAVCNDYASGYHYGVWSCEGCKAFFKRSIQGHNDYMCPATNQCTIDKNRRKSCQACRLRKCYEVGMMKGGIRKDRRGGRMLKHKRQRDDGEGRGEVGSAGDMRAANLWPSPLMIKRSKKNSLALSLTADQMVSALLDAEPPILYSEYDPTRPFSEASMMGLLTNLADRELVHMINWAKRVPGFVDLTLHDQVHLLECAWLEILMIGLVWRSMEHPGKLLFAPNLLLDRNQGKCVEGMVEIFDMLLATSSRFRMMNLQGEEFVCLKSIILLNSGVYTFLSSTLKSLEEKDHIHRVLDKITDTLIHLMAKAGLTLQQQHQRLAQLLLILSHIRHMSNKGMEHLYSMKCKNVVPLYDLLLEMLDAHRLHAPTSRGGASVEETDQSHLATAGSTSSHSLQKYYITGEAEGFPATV
Test: Binding affinity for estrogen receptor (ER) alpha of MCF-7 cell cytosol incubated with 2 nM [3H]estradiol; Agonist
Assay type: cell-based
Measured Ki, listed per entry for reference.
Just the number in µM, nothing appended.

Worked set:
Oc1ccc(/C=C/c2cc(O)cc(O)c2)cc1 | 0.785
COc1ccc(/C=C\c2cc(OC)cc(OC)c2)cc1 | 0.132
CCOc1ccc(/C=C/c2cc(OC)cc(OC)c2)cc1 | 0.381
CCOc1ccc(/C=C\c2cc(OC)cc(OC)c2)cc1 | 0.136

Please examine the following record next.
INPUT: Quick check: Ki of `COc1ccc(/C=C/c2cc(OC)cc(OC)c2)cc1` ?
OUTPUT: 0.261
